STUDY_TARGET: hERG channel (Homo sapiens, UniProt Q12809)
Sequence (Q12809 whole entry): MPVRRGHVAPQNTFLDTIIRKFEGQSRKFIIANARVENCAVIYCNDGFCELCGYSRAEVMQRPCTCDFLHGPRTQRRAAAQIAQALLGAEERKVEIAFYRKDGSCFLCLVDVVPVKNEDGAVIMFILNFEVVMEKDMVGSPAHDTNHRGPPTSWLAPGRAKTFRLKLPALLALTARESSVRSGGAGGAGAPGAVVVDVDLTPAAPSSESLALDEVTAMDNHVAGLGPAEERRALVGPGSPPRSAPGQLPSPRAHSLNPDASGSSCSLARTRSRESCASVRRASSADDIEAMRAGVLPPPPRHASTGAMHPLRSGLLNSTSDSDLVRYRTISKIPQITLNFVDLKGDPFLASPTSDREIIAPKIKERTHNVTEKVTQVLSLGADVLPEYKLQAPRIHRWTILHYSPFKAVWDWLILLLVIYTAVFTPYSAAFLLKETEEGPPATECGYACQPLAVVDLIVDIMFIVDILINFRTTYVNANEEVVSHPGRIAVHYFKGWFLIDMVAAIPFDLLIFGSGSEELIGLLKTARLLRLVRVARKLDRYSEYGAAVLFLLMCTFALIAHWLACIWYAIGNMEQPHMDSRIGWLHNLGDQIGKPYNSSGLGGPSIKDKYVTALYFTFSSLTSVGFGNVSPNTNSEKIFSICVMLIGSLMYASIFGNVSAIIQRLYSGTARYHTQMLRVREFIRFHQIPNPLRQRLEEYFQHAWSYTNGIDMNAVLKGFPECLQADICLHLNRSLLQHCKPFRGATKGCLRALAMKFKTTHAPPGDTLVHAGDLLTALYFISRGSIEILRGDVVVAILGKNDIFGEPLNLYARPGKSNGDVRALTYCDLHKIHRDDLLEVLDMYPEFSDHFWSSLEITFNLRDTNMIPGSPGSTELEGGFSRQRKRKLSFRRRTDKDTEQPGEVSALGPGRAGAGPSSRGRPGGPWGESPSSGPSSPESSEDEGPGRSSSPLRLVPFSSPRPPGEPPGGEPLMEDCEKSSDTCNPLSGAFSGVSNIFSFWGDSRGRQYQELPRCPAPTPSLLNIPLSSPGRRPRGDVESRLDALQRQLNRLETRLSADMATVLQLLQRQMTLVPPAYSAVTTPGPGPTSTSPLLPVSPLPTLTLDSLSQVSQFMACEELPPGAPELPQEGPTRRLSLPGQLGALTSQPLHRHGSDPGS
METHOD_SUMMARY: inhibition of hERG channel current (data not shown)
MEASURE: IC50 (µM)
Answer format: numeric, µM implied, no suffix.

Data request: Report IC50 for COc1cc(-c2ccc(CN[C@H]3C[C@@H](O)[C@@H](N(C)c4ncnc5sc(CC(F)(F)F)cc45)C3)cc2)nnc1OC [DS-1594a] tested on hERG channel (Homo sapiens, UniProt Q12809).
Data returned: 0.3
